Provenance of the data: patent US20070178531A1

Biological target: T1, Mouse Id2: Histidine (mouse, UniProt P41136 1-134, limits assumed)
T1 construct: Fusion protein made in E. coli from vector pGW07; also called m-Id2: His; not shown: His tag
T1 sequence (looked up): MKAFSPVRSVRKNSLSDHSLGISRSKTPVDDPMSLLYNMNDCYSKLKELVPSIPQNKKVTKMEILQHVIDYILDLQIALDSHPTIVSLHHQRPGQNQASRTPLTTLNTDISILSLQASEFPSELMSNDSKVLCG
Assay: ELISA, Ab 0.010 µg/ml
Measured Quantity: A450 (A450)
Give a bare numeral; the unit A450 is implied.

[[record]]
binder = "rabbit monoclonal anti-mouse/human Id3, clone #BCH-4/#42-1 (antibody, V domains shown, Rabbit IgG from a rabbit hybridoma; also called m/h Id3 MoAb 42-1) VH: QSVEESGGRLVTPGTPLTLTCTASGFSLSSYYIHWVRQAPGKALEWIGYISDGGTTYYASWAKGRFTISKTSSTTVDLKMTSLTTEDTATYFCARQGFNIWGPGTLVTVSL VL: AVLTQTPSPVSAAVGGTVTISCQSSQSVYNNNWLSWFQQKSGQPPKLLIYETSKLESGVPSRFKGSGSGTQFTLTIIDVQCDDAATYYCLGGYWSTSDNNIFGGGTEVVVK"
measured_quantity = "A450"
result = 0.05

[[record]]
binder = "rabbit monoclonal anti-human Id3, clone #BCH-4/#3-3 (antibody, V domains shown, Rabbit IgG from a rabbit hybridoma; also called h Id3 MoAb 3-3) VH: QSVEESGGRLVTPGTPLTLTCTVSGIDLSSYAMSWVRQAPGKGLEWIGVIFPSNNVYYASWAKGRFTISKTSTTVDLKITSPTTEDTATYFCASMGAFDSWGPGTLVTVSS VL: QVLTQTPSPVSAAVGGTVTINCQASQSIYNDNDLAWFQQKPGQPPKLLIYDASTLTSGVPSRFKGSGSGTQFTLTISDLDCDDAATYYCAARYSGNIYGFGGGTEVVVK"
measured_quantity = "A450"
result = 0.045

[[record]]
binder = "rabbit monoclonal anti-mouse/human Id3, clone #BCH-4/#17-3 (antibody, V domains shown, Rabbit IgG from a rabbit hybridoma; also called m/h Id3 MoAb 17-3; BCH-3/#17-3) VH: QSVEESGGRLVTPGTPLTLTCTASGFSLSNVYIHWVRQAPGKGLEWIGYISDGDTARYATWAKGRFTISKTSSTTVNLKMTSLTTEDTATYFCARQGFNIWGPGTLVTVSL VL: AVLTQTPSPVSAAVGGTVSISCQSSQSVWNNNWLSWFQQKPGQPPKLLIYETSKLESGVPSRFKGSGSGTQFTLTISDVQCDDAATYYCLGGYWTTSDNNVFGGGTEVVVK"
measured_quantity = "A450"
result = 0.048


The record that follows has no A450 shown yet.
Which A450 value is on record for rabbit monoclonal anti-mouse/human Id3, clone #BCH-4/#6-1 (antibody, V domains shown, Rabbit IgG from a rabbit hybridoma; also called m/h Id3 MoAb 6-1) VH: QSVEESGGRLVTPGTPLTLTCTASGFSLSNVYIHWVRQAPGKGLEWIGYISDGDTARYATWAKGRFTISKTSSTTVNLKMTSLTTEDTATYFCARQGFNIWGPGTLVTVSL VL: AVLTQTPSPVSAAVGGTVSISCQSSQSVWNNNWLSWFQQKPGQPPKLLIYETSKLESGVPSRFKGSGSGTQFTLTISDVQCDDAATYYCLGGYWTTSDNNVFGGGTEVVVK ?
0.048
